Data credit: patent US6818767B2

# Assay Target: mouse NPY5-receptor (mNPY5) (Mus musculus)
# Construct: The full-length cDNA encoding the mouse NPY5 (mNPY5) receptor was amplified from mouse brain cDNA; membrane preparation
# Sequence (O70342 whole entry): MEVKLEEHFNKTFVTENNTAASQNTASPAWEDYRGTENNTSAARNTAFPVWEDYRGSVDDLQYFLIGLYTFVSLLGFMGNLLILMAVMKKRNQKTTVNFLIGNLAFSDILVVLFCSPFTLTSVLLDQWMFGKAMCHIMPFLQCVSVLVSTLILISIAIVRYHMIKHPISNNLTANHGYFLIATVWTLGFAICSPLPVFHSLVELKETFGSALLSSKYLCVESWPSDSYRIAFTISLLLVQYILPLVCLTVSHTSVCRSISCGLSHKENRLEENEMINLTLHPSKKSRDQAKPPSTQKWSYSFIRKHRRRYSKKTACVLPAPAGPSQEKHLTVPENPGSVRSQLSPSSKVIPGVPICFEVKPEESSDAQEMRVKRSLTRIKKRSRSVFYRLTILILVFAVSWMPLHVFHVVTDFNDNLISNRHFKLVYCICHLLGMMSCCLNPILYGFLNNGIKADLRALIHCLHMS
# Method Summary: Radioligand competition binding
# Test Conditions: displacement of 100 pM [125I]labelled peptide YY, membranes of HEK293 cells expressing recombinant mNPY5, 1 h at 22° C.; read-out: NPY5-R (mouse) IC50
Recorded Endpoint: IC50 (nM)
Numeric only. Scale: nM

Q. Please give the documented IC50 of Cc1cc(N2CCCC2)c2ccc(OCC3CC3)cc2n1
A. 27

Q. Give IC50 for CCCCc1cc2c(N3CCCC3)ccnc2cc1O
A. 9.9
